Origin of the recorded values: patent US7629318B2

Stability (Arbitrary units) Rat 24 h listing for selected compounds.
- measurement_notes: Stability of compounds in rat blood plasma
- Assay type: in vitro ADME
Numbered stars: 1 amine (or outer) side, 2 acyl side, 3 side chain; on linkers, the order of the positions; unused ones are H or OH. Square brackets hold non-standard residues; d marks the D form. Peptide text beside a SMILES is read from it. * marks the point of attachment. Gly(1-amidinopiperidin-4-yl) = N=C(N)N1CCC([C@H](N)C(=O)O)CC1; Tetrahydroisoquinolin(2-yl) = c1ccc2c(c1)CCN(*)C2; X1 = CC(C)c1oc([C@H](CO)N[*:1])nc1C(=O)[*:2]; Pro(3R-Ph) = O=C(O)[C@H]1NCC[C@@H]1c1ccccc1; Met(O) = CS(=O)CC[C@H](N)C(=O)O; N(Me)CH2CH2Ph = CN(CCc1ccccc1)*; Tic = O=C(O)[C@@H]1Cc2ccccc2CN1; Cha = N[C@@H](CC1CCCCC1)C(=O)O; NHPhenethyl = c1ccc(CCN*)cc1; NMe(benzyl) = CN(Cc1ccccc1)*; Nle = CCCC[C@H](N)C(=O)O
State just the number; it will be interpreted in Arbitrary units.

Record excerpt, results attached:
INPUT: Would you kindly share the measured Stability (Arbitrary units) Rat 24 h for CCCC[C@H](NC(=O)[C@@H]1Cc2ccccc2CN1C(=O)[C@@H](NC(=O)[C@H](CC1CCCCC1)NC(C)=O)C1CCN(C(=N)N)CC1)C(=O)N(C)Cc1ccccc1 [Compound P74, Ac-Cha-Gpg-Tic-Nle-N(Me)Bn] (Ac-[Cha][Gly(1-amidinopiperidin-4-yl)][Tic][Nle]-{NMe(benzyl)}) ?
OUTPUT: 71

INPUT: Would you kindly share the measured Stability (Arbitrary units) Rat 24 h for CSCC[C@H](NC(=O)[C@@H]1Cc2ccccc2CN1C(=O)[C@H](CCCNC(=N)N)NC(=O)[C@H](CC1CCCCC1)NC(C)=O)C(=O)N(C)CCc1ccccc1 [Compound P84, Ac-Cha-Arg-Tic-Met-N(Me)CH2CH2Ph] (Ac-[Cha]R[Tic]M-{N(Me)CH2CH2Ph}) ?
OUTPUT: 99

INPUT: Would you kindly share the measured Stability (Arbitrary units) Rat 24 h for CCCC[C@H](NC(=O)C1c2ccccc2CN1C(=O)[C@@H](NC(=O)[C@H](CC1CCCCC1)NC(C)=O)C1CCN(C(=N)N)CC1)C(=O)N(C)Cc1ccccc1 (single isomer, unassigned) [Compound P78-1] ?
OUTPUT: 84

INPUT: Would you kindly share the measured Stability (Arbitrary units) Rat 24 h for CCCC[C@H](NC(=O)[C@@H]1Cc2ccccc2CN1C(=O)[C@@H](NC(=O)[C@H](CC1CCCCC1)NC(C)=O)C1CCN(C(=N)N)CC1)C(=O)N1CCc2ccccc2C1 [Compound P77] (Ac-[Cha][Gly(1-amidinopiperidin-4-yl)][Tic][Nle]-{Tetrahydroisoquinolin(2-yl)}) ?
OUTPUT: 57

INPUT: Would you kindly share the measured Stability (Arbitrary units) Rat 24 h for CCCC[C@H](NC(=O)[C@@H]1Cc2ccccc2CN1C(=O)[C@H](CCCNC(=N)N)NC(=O)[C@H](CC1CCCCC1)NC(C)=O)C(=O)N(C)CCc1ccccc1 [Compound P83, Ac-Cha-Arg-Tic-Nle-N(Me)CH2CH2Ph] (Ac-[Cha]R[Tic][Nle]-{N(Me)CH2CH2Ph}) ?
OUTPUT: 85

New cases:
INPUT: Would you kindly share the measured Stability (Arbitrary units) Rat 24 h for CCCC[C@H](NC(=O)[C@@H]1Cc2ccccc2CN1C(=O)[C@@H](NC(=O)[C@H](CC1CCCCC1)NC(C)=O)C1CCN(C(=N)N)CC1)C(=O)NCCc1ccccc1 [Compound P69, Ac-Cha-Gpg-Tic-Nle-N(H)CH2CH2Ph] (Ac-[Cha][Gly(1-amidinopiperidin-4-yl)][Tic][Nle]-NHPhenethyl) ?
OUTPUT: 42

INPUT: Would you kindly share the measured Stability (Arbitrary units) Rat 24 h for CC(=O)N[C@@H](CC1CCCCC1)C(=O)N[C@@H](CCCNC(=N)N)C(=O)N1Cc2ccccc2C[C@H]1C(=O)N[C@@H](CC[S+](C)[O-])C(=O)N1CC[C@H](c2ccccc2)[C@H]1C(=O)N[C@@H](CO)c1nc(C(=O)N(C)C)c(C(C)C)o1 (stereo partly drawn) [Compound P43] (Ac-[Cha]R[Tic][Met(O)][Pro(3R-Ph)][X1]-NMe2) ?
OUTPUT: 71

* * *

- measurement_notes: Stability of compounds in rat blood plasma
- Type: in vitro ADME
- Protocol: The stability of the peptidomimetic compounds was determined in rat (Charles River Laboratories, Sulzfeld), mouse (Charles River Laboratories, Sulzfeld) and human (Bayerisches Rotes Kreuz, München) blood plasma (E. R. Garrett and M. R. Gardner, J Pharmaceutical Sciences 71 (1982) 14-25). Compound stock solutions were diluted into blood plasma to give a final compound concentration of 5 μM and the mixtures were incubated at 37° C. […]
Square brackets hold non-standard residues; d marks the D form. Peptide text beside a SMILES is read from it. * marks the point of attachment. ξ: configuration not given here. N(Me)CH2CH2Ph = CN(CCc1ccccc1)*; Tic = O=C(O)[C@@H]1Cc2ccccc2CN1; Cha = N[C@@H](CC1CCCCC1)C(=O)O; NMe(benzyl) = CN(Cc1ccccc1)*; ξDisc = O=C(O)C1NCc2ccccc21; Nle = CCCC[C@H](N)C(=O)O
Stability (Arbitrary units) Rat 6 h listing for selected compounds.
State just the number; it will be interpreted in Arbitrary units.

INPUT: Would you kindly share the measured Stability (Arbitrary units) Rat 6 h for CCCC[C@H](NC(=O)C1c2ccccc2CN1C(=O)[C@H](CCCNC(=N)N)NC(=O)[C@H](CC1CCCCC1)NC(C)=O)C(=O)N(C)Cc1ccccc1 (stereo partly drawn) [Compound P72-1, Ac-Cha-Arg-Disc-Nle-N(Me)Bn] (Ac-[Cha]R[ξDisc][Nle]-{NMe(benzyl)}) ?
OUTPUT: 80

# next compound below
INPUT: Would you kindly share the measured Stability (Arbitrary units) Rat 6 h for CSCC[C@H](NC(=O)[C@@H]1Cc2ccccc2CN1C(=O)[C@H](CCCNC(=N)N)NC(=O)[C@H](CC1CCCCC1)NC(C)=O)C(=O)N(C)CCc1ccccc1 [Compound P84, Ac-Cha-Arg-Tic-Met-N(Me)CH2CH2Ph] (Ac-[Cha]R[Tic]M-{N(Me)CH2CH2Ph}) ?
OUTPUT: 104

* * *

- study_target: DR4Dw14 (DRA1*0101 DRB1*0404) (Homo sapiens, UniProt P01903+P01911, A100R/A169T/F76Y/I96L/K127E/L162R/M171V/N62H/P40V/Q125Y/R42H/S133A/S149N/S66Y/V209L/W38E)
- measurement_notes: Competitive binding to MHC-II protein DR4Dw14
- condition_notes: Protein binding IC50 (nM) 0404, 0404
Square brackets hold non-standard residues; d marks the D form. Peptide text beside a SMILES is read from it. * marks the point of attachment. Tic = O=C(O)[C@@H]1Cc2ccccc2CN1; Cha = N[C@@H](CC1CCCCC1)C(=O)O; X4 = OCCOCCN(CCc1ccccc1)*
reported_metric: IC50 (nM)
State just the number; it will be interpreted in nM.

INPUT: Would you kindly share the measured IC50 for CSCC[C@H](NC(=O)[C@@H]1Cc2ccccc2CN1C(=O)[C@H](CCCNC(=N)N)NC(=O)[C@H](CC1CCCCC1)NC(C)=O)C(=O)N(CCOCCO)CCc1ccccc1 [Compound P96] (Ac-[Cha]R[Tic]M-X4) ?
OUTPUT: 7400
